Tested on: Botrtyis cinerea (Bc)
Experiment: Growth inhibition assay of fungal pathogens
Type: cell-based
Settings: 48 h, Table 4a, read-out: Concentration at 90% Inhibition Bc

[
  {
    "MOLECULE": "CCOC(=O)c1sc2c(c1C)c(=O)n(C(C)(C)C(=O)N1CCCCC1)c(=O)n2C[C@H](OC1CCOCC1)c1ccccc1OC [Compound I-2]",
    "QUALIFIER_OPERATOR": "=",
    "IC90, µg/mL": 0.4
  },
  {
    "MOLECULE": "CCOC(=O)c1sc2c(c1C)c(=O)n(C(C)(C)C(=O)NC(C)C)c(=O)n2C[C@H](OC(C)C)c1ccccc1OC [Compound I-9]",
    "QUALIFIER_OPERATOR": "=",
    "IC90, µg/mL": 0.4
  },
  {
    "MOLECULE": "CCOC(=O)c1sc2c(c1C)c(=O)n(C(C)(C)C(=O)N1CCCC1)c(=O)n2C[C@H](OCCO)c1cc(F)ccc1OC [Compound I-12]",
    "QUALIFIER_OPERATOR": "=",
    "IC90, µg/mL": 2
  },
  {
    "MOLECULE": "CCOC(=O)c1sc2c(c1C)c(=O)n(C(C)(C)C(N)=O)c(=O)n2C[C@H](OCCC#N)c1cc(F)ccc1OC [Compound I-14]",
    "QUALIFIER_OPERATOR": "=",
    "IC90, µg/mL": 2
  },
  {
    "MOLECULE": "CCOC(=O)c1sc2c(c1C)c(=O)n(C(C)(C)C(=O)NC(C)C)c(=O)n2C[C@H](O)c1cc(F)ccc1OC [Compound I-19]",
    "QUALIFIER_OPERATOR": "=",
    "IC90, µg/mL": 0.4
  },
  {
    "MOLECULE": "CCOC(=O)c1sc2c(c1C)c(=O)n(C(C)(C)C(=O)N1CCCC1)c(=O)n2C[C@H](OCCOC)c1cc(F)ccc1OC [Compound I-13]",
    "QUALIFIER_OPERATOR": "=",
    "IC90, µg/mL": 2
  },
  {
    "MOLECULE": "CCOC(=O)c1sc2c(c1C)c(=O)n(C(C)(C)C(=O)NC(C)C)c(=O)n2C[C@H](OCCO)c1cc(F)ccc1OC [Compound I-18]",
    "QUALIFIER_OPERATOR": "=",
    "IC90, µg/mL": 2
  },
  {
    "MOLECULE": "CCOC(=O)c1sc2c(c1C)c(=O)n(C(C)(C)C(=O)N1CCCC1)c(=O)n2C[C@H](OCCC#N)c1cc(F)ccc1OC [Compound I-16]",
    "QUALIFIER_OPERATOR": "=",
    "IC90, µg/mL": 2
  },
  {
    "MOLECULE": "CCOC(=O)c1sc2c(c1C)c(=O)n(C(C)(C)C(=O)N1CCCC1)c(=O)n2C[C@H](OC1CCOCC1)c1ccccc1OC [Compound I-3]",
    "QUALIFIER_OPERATOR": "=",
    "IC90, µg/mL": 2
  },
  {
    "MOLECULE": "CCNC(=O)C(C)(C)n1c(=O)c2c(C)c(C(=O)OCC)sc2n(C[C@H](OC(C)C)c2ccccc2OC)c1=O [Compound I-4]",
    "QUALIFIER_OPERATOR": "=",
    "IC90, µg/mL": 2
  },
  {
    "MOLECULE": "CCOC(=O)c1sc2c(c1C)c(=O)n(C(C)(C)C(=O)N1CCCC1)c(=O)n2C[C@H](OC(C)C)c1ccccc1OC [Compound I-7]",
    "QUALIFIER_OPERATOR": "=",
    "IC90, µg/mL": 0.4
  },
  {
    "MOLECULE": "CCOC(=O)c1sc2c(c1C)c(=O)n(C(C)(C)C(=O)N1CCOCC1)c(=O)n2C[C@H](OC(C)C)c1ccccc1OC [Compound I-5]",
    "QUALIFIER_OPERATOR": "=",
    "IC90, µg/mL": 0.4
  },
  {
    "MOLECULE": "CCOC(=O)c1sc2c(c1C)c(=O)n(C(C)(C)C(=O)N1CCCCC1)c(=O)n2C[C@H](OC(C)C)c1ccccc1OC [Compound I-6]",
    "QUALIFIER_OPERATOR": "=",
    "IC90, µg/mL": 0.4
  },
  {
    "MOLECULE": "CCOC(=O)c1sc2c(c1C)c(=O)n(C(C)(C)C(=O)NC(C)C)c(=O)n2C[C@H](OCCC#N)c1cc(F)ccc1OC [Compound I-15]",
    "QUALIFIER_OPERATOR": "=",
    "IC90, µg/mL": 0.4
  },
  {
    "MOLECULE": "CCOC(=O)c1sc2c(c1C)c(=O)n(C(C)(C)C(N)=O)c(=O)n2C[C@H](OCCOC)c1cc(F)ccc1OC [Compound I-10]",
    "QUALIFIER_OPERATOR": "≥",
    "IC90, µg/mL": 50
  },
  {
    "MOLECULE": "CCOC(=O)c1sc2c(c1C)c(=O)n(C(C)(C)C(=O)NC(C)C)c(=O)n2C[C@H](OC1CCOCC1)c1ccccc1OC [Compound I-8]",
    "QUALIFIER_OPERATOR": "=",
    "IC90, µg/mL": 0.4
  },
  {
    "MOLECULE": "CCOC(=O)c1sc2c(c1C)c(=O)n(C(C)(C)C(N)=O)c(=O)n2C[C@H](OCCO)c1cc(F)ccc1OC [Compound I-17]",
    "QUALIFIER_OPERATOR": "≥",
    "IC90, µg/mL": 50
  },
  {
    "MOLECULE": "CCOC(=O)c1sc2c(c1C)c(=O)n(C(C)(C)C(=O)NC(C)C)c(=O)n2C[C@H](OCCOC)c1cc(F)ccc1OC [Compound I-11]",
    "QUALIFIER_OPERATOR": "=",
    "IC90, µg/mL": 2
  }
]

###

System: Diplodia maydis (Dm)
Test: Growth inhibition assay of fungal pathogens
Type: cell-based
Conditions: Stenocarpella maydis, 48 h, Table 4a, read-out: Concentration at 90% Inhibition Dm

[
  {
    "ITEM_SMILES": "CCOC(=O)c1sc2c(c1C)c(=O)n(C(C)(C)C(=O)N1CCOCC1)c(=O)n2C[C@H](OC(C)C)c1ccccc1OC",
    "SYSTEM_TESTED": "Diplodia maydis (Dm)",
    "IC90": "2 µg/mL"
  },
  {
    "ITEM_SMILES": "CCOC(=O)c1sc2c(c1C)c(=O)n(C(C)(C)C(=O)NC(C)C)c(=O)n2C[C@H](OCCO)c1cc(F)ccc1OC",
    "SYSTEM_TESTED": "Diplodia maydis (Dm)",
    "IC90": "0.4 µg/mL"
  },
  {
    "ITEM_SMILES": "CCOC(=O)c1sc2c(c1C)c(=O)n(C(C)(C)C(=O)NC(C)C)c(=O)n2C[C@H](OCCOC)c1cc(F)ccc1OC",
    "SYSTEM_TESTED": "Diplodia maydis (Dm)",
    "IC90": "2 µg/mL"
  },
  {
    "ITEM_SMILES": "CCOC(=O)c1sc2c(c1C)c(=O)n(C(C)(C)C(=O)N1CCCCC1)c(=O)n2C[C@H](OC(C)C)c1ccccc1OC",
    "SYSTEM_TESTED": "Diplodia maydis (Dm)",
    "IC90": "0.4 µg/mL"
  },
  {
    "ITEM_SMILES": "CCOC(=O)c1sc2c(c1C)c(=O)n(C(C)(C)C(=O)NC(C)C)c(=O)n2C[C@H](OC1CCOCC1)c1ccccc1OC",
    "SYSTEM_TESTED": "Diplodia maydis (Dm)",
    "IC90": "2 µg/mL"
  },
  {
    "ITEM_SMILES": "CCOC(=O)c1sc2c(c1C)c(=O)n(C(C)(C)C(=O)NC(C)C)c(=O)n2C[C@H](OCCC#N)c1cc(F)ccc1OC",
    "SYSTEM_TESTED": "Diplodia maydis (Dm)",
    "IC90": "0.08 µg/mL"
  }
]

###

Test system: Botrtyis cinerea (Bc)
Assay: Growth inhibition assay of fungal pathogens
Type: cell-based
Settings: 48 h, Table 4b, read-out: Concentration at 90% Inhibition Bc
Recorded measurements of IC90, one per entry
RESULT_TYPE: IC90 (µg/mL)

[
  {
    "ITEM_SMILES": "CCOC(=O)c1sc2c(c1C)c(=O)n(C(C)(C)C(=O)NC(C)C)c(=O)n2CCc1cc(F)ccc1OCCC#N",
    "QUANTITATIVE_READOUT": 10
  },
  {
    "ITEM_SMILES": "CCOC(=O)c1sc2c(c1C)c(=O)n([C@@H](C)C(=O)NC(C)C)c(=O)n2C[C@H](OCCC#N)c1cc(F)ccc1OC",
    "QUANTITATIVE_READOUT": 2
  },
  {
    "ITEM_SMILES": "CCNC(=O)[C@@H](C)n1c(=O)c2c(C)c(C(=O)OCC)sc2n(C[C@H](OCCC#N)c2cc(F)ccc2OC)c1=O",
    "QUANTITATIVE_READOUT": 10
  },
  {
    "ITEM_SMILES": "CCNC(=O)C(C)(C)n1c(=O)c2c(C)c(C(=O)OCC)sc2n(C[C@H](OCCC#N)c2cc(F)ccc2OC)c1=O",
    "QUANTITATIVE_READOUT": 2
  }
]
